test system: Tyrosine-protein phosphatase non-receptor type 1 (Homo sapiens)
Sequence (whole entry): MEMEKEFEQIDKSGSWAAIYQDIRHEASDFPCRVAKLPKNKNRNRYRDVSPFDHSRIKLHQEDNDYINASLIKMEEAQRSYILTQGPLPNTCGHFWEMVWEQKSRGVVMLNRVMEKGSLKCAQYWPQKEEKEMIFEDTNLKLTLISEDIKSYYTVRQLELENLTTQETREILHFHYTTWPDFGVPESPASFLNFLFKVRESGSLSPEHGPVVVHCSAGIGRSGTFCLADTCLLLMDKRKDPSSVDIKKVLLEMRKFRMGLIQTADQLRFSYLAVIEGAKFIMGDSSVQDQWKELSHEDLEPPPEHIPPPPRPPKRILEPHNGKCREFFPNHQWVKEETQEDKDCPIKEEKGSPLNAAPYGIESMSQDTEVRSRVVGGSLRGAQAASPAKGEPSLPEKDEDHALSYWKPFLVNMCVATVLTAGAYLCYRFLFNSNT
protocol notes: Binding affinity to PTP1B in human U2OS cells by SDS-PAGE based pull-down assay
Assay type: cell-based
Activity calls are given as the source filed them. The rule behind the calls is not given here. Where a SMILES comes first, the peptide text is derived from it. [ ]: non-standard residue; d: D form. The star is where a group is joined. F2Pmp = N[C@@H](Cc1ccc(C(F)(F)P(=O)(O)O)cc1)C(=O)O; Biotin = O=C1N[C@H]2[C@H](CS[C@H]2CCCCC(=O)*)N1; Hexanoyl(6-N3) = [N-]=[N+]=NCCCCCC(=O)*; Pra = C#CC[C@H](N)C(=O)O
reported endpoint: Activity

molecule	test system	result
NC(=O)CC[C@@H]1NC(=O)[C@@H]2CCCN2C(=O)[C@H](CCC(=O)O)NC(=O)[C@@H](CCCCNC(=O)CCCC[C@@H]2SC[C@@H]3NC(=O)N[C@@H]32)n2cc(nn2)C[C@H](C(N)=O)NC(=O)[C@H](CC(N)=O)NC(=O)[C@H](CCC(=O)O)NC(=O)CNC(=O)[C@@H]2CCCN2C(=O)[C@H](CCC(N)=O)NC(=O)[C@H](Cc2ccc(O)cc2)NC1=O	Tyrosine-protein phosphatase non-receptor type 1 (Homo sapiens)	inactive
C#CC[C@H](NC(=O)[C@H](CC(N)=O)NC(=O)[C@H](CCC(=O)O)NC(=O)CNC(=O)[C@@H]1CCCN1C(=O)[C@H](CCC(N)=O)NC(=O)[C@H](Cc1ccc(C(F)(F)P(=O)(O)O)cc1)NC(=O)[C@H](CCC(N)=O)NC(=O)[C@@H]1CCCN1C(=O)[C@H](CCC(=O)O)NC(=O)[C@H](CCCCNC(=O)CCCC[C@@H]1SC[C@@H]2NC(=O)N[C@@H]21)NC(=O)CCCCCN=[N+]=[N-])C(N)=O ({Hexanoyl(6-N3)}-K(Biotin)EPQ[F2Pmp]QPGEN[Pra]-NH2)	Tyrosine-protein phosphatase non-receptor type 1 (Homo sapiens)	inactive
CC(C)C[C@H](NC(=O)[C@H](CC(N)=O)NC(=O)[C@H](CCC(=O)O)NC(=O)CNC(=O)[C@@H]1CCCN1C(=O)[C@H](CCC(N)=O)NC(=O)[C@H](Cc1ccc(C(F)(F)P(=O)(O)O)cc1)NC(=O)[C@H](CCC(N)=O)NC(=O)[C@@H]1CCCN1C(=O)[C@H](CCC(=O)O)NC(=O)CCCC[C@@H]1SC[C@@H]2NC(=O)N[C@@H]21)C(N)=O (Biotin-EPQ[F2Pmp]QPGENL-NH2)	Tyrosine-protein phosphatase non-receptor type 1 (Homo sapiens)	inactive

Reference for the values: ChEMBL document CHEMBL3425432
